# SYSTEM UNDER TEST: T1, recombinant human activated Factor VII (FVIIa) (human, UniProt P08709 61-212; P08709 213-466, ten glutamate residues of the Gla domain may be gamma-carboxylated)
# T1 construct: chains tethered by a disulfide bond; also called Factor VIIa; rFVIIa
# T1 sequence 1: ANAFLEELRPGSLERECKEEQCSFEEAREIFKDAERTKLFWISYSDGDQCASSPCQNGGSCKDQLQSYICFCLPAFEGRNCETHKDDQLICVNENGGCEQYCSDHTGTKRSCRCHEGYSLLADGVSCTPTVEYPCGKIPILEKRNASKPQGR
# T1 sequence 2: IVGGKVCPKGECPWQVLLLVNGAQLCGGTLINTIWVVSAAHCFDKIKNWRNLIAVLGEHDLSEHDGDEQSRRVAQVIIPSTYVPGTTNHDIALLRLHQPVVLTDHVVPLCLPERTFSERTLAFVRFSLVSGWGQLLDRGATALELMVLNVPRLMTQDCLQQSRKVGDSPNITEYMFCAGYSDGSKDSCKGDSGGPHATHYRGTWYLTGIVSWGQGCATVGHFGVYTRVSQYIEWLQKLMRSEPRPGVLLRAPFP
# ASSAY OVERVIEW: BLI (Fortebio)
// reported Kd per item
// return numeric value only (unit: nM, not printed)

BINDER	UNIT	MEASURED
VH SEQ ID NO 554 / VL SEQ ID NO 502 (antibody, IgG4, V domains shown, humanized 11F2; IgG4 S228P/kappa) VH: QVQLQESGPGLVKPSDTLSLTCAVSGYSISSDSAWSWIRQFPGKGLEWIGYIQYSGSTNYNPSLKSRVTMSVDTSKNQFSLKLSSVTALDTAVYYCARSVNYYGNSFAVGPWGQGTLVTVSS VL: EIVLTQSPATLSLSPGERATLSCRASQGVSDYLHWYQQKPGQAPRLLIKYTSQPATGIPARFSGSGSGTDFTLTISSLEPEDFAVYYCQNGHSFPLTFGQGTKLEIK	nM	18
VH SEQ ID NO 514 / VL SEQ ID NO 414 (antibody, IgG4, V domains shown, humanized 11F2; IgG4 S228P/kappa) VH: QVQLQESGPGLVEPSDTLSLTCAVSGYSITSDSAWSWIRQPPGKKLEWIGYIQYSGSTNYNPSLKSRVTMSRDTSKNQFSLKLSSVTALDTAVYYCARSVNYYGNSFAVGYWGQGTLVTVSS VL: EIVLTQSPATLSLSPGERATLSCRASQGVSDYLAWYQQKPGQAPRLLIKYASQPATGIPARFSGSGSGTDFTLTISSLEPEDFAVYYCQNGHSFPLTFGQGTKLEIK	nM	4.6

Consider the additional binder presented here.
Q. // returns reported Kd for input VH SEQ ID NO 570 / VL SEQ ID NO 358 (antibody, IgG4, V domains shown, humanized 11F2; IgG4 S228P/kappa) VH: QVQLQESGPGLVKPSDTLSLTCAVSGYSISSDSAWSWIRQPPGKGLEWIGYIQYSGSTNYNPSLKSRVTMSRDTSKNQFSLKLSSVTAADTAVYYCARSVNYYGNSFAVGPWGQGTLVTVSS VL: EIVLTQSPATLSLSPGERATLSCRASQGISDYLHWYQQKPGQAPRLLIKYTSQPATGIPARFSGSGSGTDFTLTISSLEPEDFAVYYCQNGHSFPLTFGQGTKLEIK
A. 0.85

Reference source for all entries: patent US20220064329A1
